- experiment.summary: Half life in Sprague-Dawley rat at 1 mg/kg, iv
- Type: ADME, organism-based
- cond: in vivo
experimental.endpoint: half-life (h)

a: C[C@@H](Oc1ccc2[nH]nc(-c3nc4cc(N5CCN(C)CC5)ccc4[nH]3)c2c1)c1c(Cl)cncc1Cl
b: C[C@@H](Oc1ccc2[nH]nc(-c3nc4cc(CCO)ccc4[nH]3)c2c1)c1c(Cl)cncc1Cl
Exercise: Please let me know which one, a or b , has a lower measured half-life value. Returns: label corresponding to the selected item.
Key: a
(a: 2 h, b: 7.3 h)

###

- experiment.summary: cells
- cond: Homo sapiens, RT-112, 72 h
- Description: Antiproliferative activity against FGFR3-amplified human RT112 cells after 72 hrs by CCK8/MTT assay
experimental.endpoint: IC50 (µM)
Only the number, expressed in µM, is required.

Exercise: Form field: reported IC50 of `COc1cc(CCc2cc(NC(=O)c3ccc(N4C[C@@H](C)N[C@@H](C)C4)cc3)n[nH]2)cc(OC)c1`
Key: 0.0884
